Each recorded value in this set is attributed to ChEMBL document CHEMBL1250502.

test system: HeLa; experiment: Cytotoxicity against human HeLa cells; type: functional, cell-based; conditions: Homo sapiens, HeLa; read-out: pIC50 (converted)
Binary call on IC50 with cut-off 7 µM: strictly below means criterion met, and equality or higher means criterion not met.

These recorded examples may help you get a feel for the data.
Is 7 µM strictly greater than the compound's reported IC50? compound: CCC1CCC2(CC1)OOC1(CC[C@@]3(C)[C@H](CC[C@@H]4[C@@H]3C[C@H](OC(C)=O)[C@]3(C)[C@@H]([C@@H](C)CCC(=O)NC)CC[C@@H]43)C1)OO2 (stereo not given in full)
criterion met

Is 7 µM strictly greater than the compound's reported IC50? compound: `CC(=O)O[C@H]1C[C@H]2[C@@H](CC[C@@H]3C[C@]4(CC[C@@]32C)OO[C@]2(CC[C@@]3(C)[C@H](CC[C@@H]5[C@@H]3C[C@H](OC(C)=O)[C@]3(C)[C@@H]([C@H](C)CCC(N)=O)CC[C@@H]53)C2)OO4)[C@@H]2CC[C@H]([C@H](C)CCC(N)=O)[C@@]12C`
criterion met

Is 7 µM strictly greater than the compound's reported IC50? compound: `COC(=O)C1CCC2(CC1)OOC1(CCCCC1)OO2`
criterion not met

---
Is 7 µM strictly greater than the compound's reported IC50? compound: `CC(=O)O[C@H]1C[C@H]2[C@@H](CC[C@@H]3CC4(CC[C@@]32C)OOC2(CCCCC2)OO4)[C@@H]2CC[C@H]([C@H](C)CCC(=O)N3CCCCC3)[C@@]12C`
criterion not met

* * *

test system: HeLa; test: Cytotoxicity against human HeLa cells; assay type: functional, cell-based; details: Homo sapiens, HeLa; read-out: pIC50 (converted)
Binary call on IC50 with cut-off 4 µM: strictly below means t, and equality or higher means f.

Is 4 µM strictly greater than the molecule's reported IC50? molecule: `CC(=O)O[C@H]1C[C@H]2[C@@H](CC[C@@H]3C[C@]4(CC[C@@]32C)OO[C@@]2(CC[C@@]3(C)[C@H](CC[C@@H]5[C@@H]3C[C@H](OC(C)=O)[C@]3(C)[C@@H]([C@H](C)CCC=O)CC[C@@H]53)C2)OO4)[C@@H]2CC[C@H]([C@H](C)CCC=O)[C@@]12C`
t

---
Is 4 µM strictly greater than the molecule's reported IC50? molecule: `COC(=O)CC[C@@H](C)[C@H]1CC[C@H]2[C@@H]3CC[C@@H]4CC5(CC[C@]4(C)[C@H]3C[C@H](OC(C)=O)[C@]12C)OOC1(CCC2(CCCC2)CC1)OO5`
f

Is 4 µM strictly greater than the molecule's reported IC50? molecule: `CCCNC(=O)C1CCC2(CC1)OOC1(CCCCC1)OO2`
f

Is 4 µM strictly greater than the molecule's reported IC50? molecule: `COC(=O)CC[C@@H](C)[C@H]1CC[C@H]2[C@@H]3CC[C@@H]4CC5(CC[C@]4(C)[C@H]3C[C@H](OC(C)=O)[C@]12C)OOC1(CCCCC1)OO5`
f

* * *

As shown below, each of these molecules has a reported IC50 value.
test: Cytotoxicity against human Fem-X cells; assay type: functional, cell-based; conditions: Homo sapiens, Fem-X; read-out: IC50
Record the value in µM, omitting the unit from your answer.

# IC50 (molecule: CCC1CCC2(CC1)OOC1(CC[C@@]3(C)[C@H](CC[C@@H]4[C@@H]3C[C@H](OC(C)=O)[C@]3(C)[C@@H]([C@H](C)CCC(N)=O)CC[C@@H]43)C1)OO2 (stereo partly drawn) ) is 4.3

# IC50 (molecule: CCNC(=O)CC[C@@H](C)[C@H]1CC[C@H]2[C@@H]3CC[C@@H]4CC5(CC[C@]4(C)[C@H]3C[C@H](OC(C)=O)[C@]12C)OOC1(CCC(CC)CC1)OO5 (stereo partly drawn) ) is 7

Below: the item to evaluate.
# IC50 (molecule: CCNC(=O)CC[C@H](C)[C@H]1CC[C@H]2[C@@H]3CC[C@@H]4CC5(CC[C@]4(C)[C@H]3C[C@H](OC(C)=O)[C@]12C)OOC1(CCC(CC)CC1)OO5 (stereo partly drawn) ) is 6.7
